Cited source for all entries: the RNAGym collection of RNA variant scans (doi:10.7554/elife.80360)

B1: HDV Ribozyme (parent)
chain: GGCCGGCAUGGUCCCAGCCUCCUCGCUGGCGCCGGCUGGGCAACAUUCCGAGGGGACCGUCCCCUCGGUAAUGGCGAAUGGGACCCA

- Variants of: B1
- test-protocol: self-cleavage, relative activity (ratio to wild type); higher = more cleavage; co-transcriptional
property-name: self-cleavage

INSERT INTO results (sequence_text, numeric_value) VALUES
  ('GGCCGGCAUGGUCCCAGCCUCCUCGCUGGCGCCGGCUGGGCAACAUACCGAGGGGACCGUCCCCUCGGUAAUGGCGAAUGGUACCCA [U47A G82U]', 0.142),
  ('GGCCGGCAUGGUCCCAGCCUCCUCGCUGGCGCCGGAUGGGCAACAUUCCGAGGGGACCGUCCCCUCGGUAAUGGCGAACGGGACCCA [C36A U79C]', 0.086),
  ('GGCCGGCAUGGUCCCAGCUUCCUCGCUGGCGCCGGCUGGGCAACAUUCCGAGGGGACCGUCCCCUCGGUAAUUGCGAAUGGGACCCA [C19U G73U]', 0.12),
  ('GGCCGGCAUGUUCCCAGCCUCCUCGCUGGCGCCGGCUGGGCAACAUUCCGAGGGGACCGUCCCCUCGGUAAUGGCGAAUGGGACGCA [G11U C85G]', 0.689),
  ('GGCCGGCCUGGUCCCAGCCUCCUCGCUGGCGCCGACUGGGCAACAUUCCGAGGGGACCGUCCCCUCGGUAAUGGCGAAUGGGACCCA [A8C G35A]', 0.142),
  ('GGCCGGCAUGGUCCCAGCUUCCUCGCUGGCGCCGGCUGGGCAGCAUUCCGAGGGGACCGUCCCCUCGGUAAUGGCGAAUGGGACCCA [C19U A43G]', 0.0545),
  ('GGCCUGCAUGGUCCCAGCCUCCUCGCUUGCGCCGGCUGGGCAACAUUCCGAGGGGACCGUCCCCUCGGUAAUGGCGAAUGGGACCCA [G5U G28U]', 0.115),
  ('GGCCGGCAUGGUCACAGCCUCCUGGCUGGCGCCGGCUGGGCAACAUUCCGAGGGGACCGUCCCCUCGGUAAUGGCGAAUGGGACCCA [C14A C24G]', 0.146),
  ('GGCCGGCAUGGUCCCAGCCUCCUCGAUGGCGCCGGCUGGGCAACAUUCCGAGGGGACCGUCCCCUCGGUAAUGGCGAAUGGGACCCA [C26A]', 1.01),
  ('GGCCGGCAUGGUACCAGCCUCCUCGCUGGUGCCGGCUGGGCAACAUUCCGAGGGGACCGUCCCCUCGGUAAUGGCGAAUGGGACCCA [C13A C30U]', 0.181),
  ('GGCCGACAUGGUCCCAGCCUCCUCGCUGGCGCCGGCUGGGCAACAUUCCGAGGGGACCGUCCCCUCUGUAAUGGCGAAUGGGACCCA [G6A G67U]', 0.692);
